Source of measurements: the DeepSol protein solubility set

- Assay name: soluble on expression in E. coli; label from the status in PepcDB or PDB records
Metric name: soluble on expression in E. coli

Polymer sequence	soluble on expression in E. coli
MGSDKIHHHHHHMGYLKTMVDVMTTEMNAIRCLIDEAGIEYESIVSEIANCEGKVIFMGVGKSAHIGKKLAATFASTGTPSFFVHATEAVHGDLGMIESKDITILISNSGNSMEVVNCIKYIKAIGSKTIAFTSNRNSVLAKECDYALIYPAKDEADHLNLAPTTSSTITLVLGDSIACALSKSSNFGSSDFYKYHPGGSLGEKLKTANNG	not soluble
MKKTYYLFNPGELSRKDNTIRFVPIQEGENGQEQAGQARYIPVEGISDFYVFGSLRANSSLYNFLGSNDIAVHFFDYYENYTGSFMPRDFLLSGKMLLAQASAYKNKKKRLFLARKFIEGAASNMQKNLAYYNNRGKDMQPMMELIDKYSLRLKETTTIEALMGIEGNIRQAYYDAFNLIIDPFEMGVRSKQPPQNEVNALISFGNMMCYTLCLKAIHQSQLNPTISFLHTPGERRYSLCLDISEVFKPILVDRTIFKVMNKRIIQAKHFDKQLNKCILNPSGKKLFVQAFEERLSETIRHRKLNRSVSFRHLVKLECYKIAKDILGIEEYQPFKMYW	not soluble
MRIHDIDPDNRPRERFLRSGKESLSPAELLALILRSGTAGLNIIDTCNKLISEHGLERLADLSIQELQKTPGIGEAKAMQIAAIFELQRRLHFARNMNLKVKGARDVFEYMKGRIPDETKEHLFVLFLSTKNQILRHETITIGTLTASLIHPREIFKAAIRESAHSIILVHNHPSGDVQPSNADKQVTSILKKAGDLLQIELLDHVIVGNNDWFSFRDHALL	not soluble
MSLLDRLNDDMKQAMKNKEKEKLSVLRMLKAALQNEAIKLGKSPLSEDEELTVLSRELKQRKDSLQEFENAGRSDLVEKVKTEIEIVQSYMPTPLTEDELRELIEQTIKEVGASSKADMGKVMGAIMPKVKGRADGSLVNKLVQQQLS	soluble
MAYWLLKSEPQVYGIEDLEREGRAIWDGVRNYQARNYLMQMKEGDLCFFYHSGTTPPGIAGRCRVVRTLLPDPTQFDPESPYYDPKATPEKPRWYTVEVAFVEKWPLVPLAELKALFPPDHPLVKRGNRLSVMPVPPEVAEALIVRRGSR	soluble

Challenge: May I ask what soluble on expression in E. coli has been recorded for MGSDKIHHHHHHMARYRVHVNDPLDKEATQLLMNKEELEVTSEHLEKDELMKIIPEVDVLVVRSATKVTADIIEAGKNLKIIARAGIGLDNIDVQKAKEKGIKVLNTPGASAPSVAELAMGLMLACARHIARATVSLKEGKWEKKALKGKELLGKTLGLIGFGNIGQEVAKRALAFGMKIIAYDPAKPETDLPVEYVDLDTLFKESDFISLHVPLTESTRHIINRESIAKMKDGVIIVNTARGGTIDEEALYEEVVSGKVYAAGLDVFEVEPPTDEIRRKLLSLDNVVATPHIGASTAEAQRRVGIELVEKIFKELGI ?
Response given: not soluble

Challenge: May I ask what soluble on expression in E. coli has been recorded for MQFPSSYWIESTQLPTFPPLSENIKTKVAVIGAGITGITTAYLLAKEGIDVVLIDSGLILNGTTGHTTAKITAQHDLIYDELINHFGMEKAGLYYESNNHALQFINETVQTYKIDCNFSNEDSYLYTTTDKGLRNLSKEYEAYQKLNIPCDYVQSLSIPIPVQSALVMKNQAQFHPLLYLKTLLAKFVEMGGKVYEQTTAMDVEKGDSPQIITKEGHRITCEYVVSCSHFPLEHHHHHH ?
Response given: not soluble

Challenge: May I ask what soluble on expression in E. coli has been recorded for MTDVIKPDYLEYDDLLDRDEMFTILEEYFMYRGLLGLRIKYGRLFNEIKKFDNDAEEQFGTIEELKQKLRLNSEEGADNFIDYIKVQKQDIVKLTVYDCISMIGLCACVVDVWRNEKLFSRWKYCLRAIKLFINDHMLDKIKSILQNRLVYVEMSKHHHHHH ?
Response given: soluble

Challenge: May I ask what soluble on expression in E. coli has been recorded for MGSDKIHHHHHHMLSKDPRLYAFRDDLADKRFETEITAQRFIQGEKKRVNTAVAGLFKENNKKSEKQTECLLGEELLIFEQGKTMSWGQSLKDGYVGYIDTTILCTSAIKQTHIVSVPRTFQYLQADLRGPMEYPLSMGSKVSVVDETEVRGTIYAILESGKAIITRHLSPIGRVYEDYVTVAETLIHTPYLWGGVSGFGIDCSGLVQLSMMMTGKMVLRDTDMQQKTIGRVLTDSDKLKRGDLVFWNGHVAIMIDHENIIHANGYSMDVMIEPLEEAVTRIAKKYQYPIEKRRPIQEM ?
Response given: not soluble

Challenge: May I ask what soluble on expression in E. coli has been recorded for MKKTFNLVATAAAGIEAVVGKELRNLGLDCQVENGRVLFKGNIETIAKSNLWLRSADRIKIVVGEFPARTFEELFQGVYALDWENYLPLGCQFPVAKAKSVKSKLHNEPSIQGITKKAIVKKLQHYFHRPDSVPLPENGPEFKIEISLLKDQARVMIDTTGPSLFKRGYRTEKGGAPIKENMAAAIILLSNWFPDKPFVDPTCGSGTFCIEAAMIGMNIAPGFNRDFAFEEWPWVDEALVTRVRNEADEQADYDIQLDISGFDFDGRMVEIARKNAREVGLEDVVKLKQMRLQDFKTNKINGVLISNPPYGERLLDDKAVDILYNEMGETFAPLKTWSQFILTNDTDFEQKFGRKADKKRKLYNGSLKVDLYQFYGQRVKRVLR ?
Response given: soluble

Challenge: May I ask what soluble on expression in E. coli has been recorded for MPFSFFSRKKPSRRFNDFYEDWSKTLTENCLPLLRQSLSSAASASVLSSNVDLVLRHLVLYYETLDLAADHNTIPYLLFPSWRNSLETPFLFLGDIHPYLLTNLLRSFIDRENQDSDDEDEETSLDLVNQPLKMTMAWKDPSDELVKRIDQIECTMRLMVPGLMDRMRKTQRSFVARVSESWVSSYQVGKKKKLTATVATASTSVDEAAKIEMEELVSIFVDANRLRKSVIMDIVGATSEHQAALFLEGLCQFLAGFKDQILLQDFEILSLPN ?
Response given: soluble

Challenge: May I ask what soluble on expression in E. coli has been recorded for MSLNGLKRGFPVMKEQIGGKLICISGIPGTGKSTICNLLNDLGYTCVEGNALAVKYGCLSGDEVDVDCLSDRMRSDNFKGIVAAHYAHLLPCNIVIILEADESALRQRMMDRGYSPEKIDENLDAQRSDTIYAESLERLPANRIFRIRNADLNVALSDILRIIGGRNEGHHHHHH ?
Response given: soluble

----------
- Assay name: soluble on expression in E. coli; label from the status in PepcDB or PDB records
Metric name: soluble on expression in E. coli

Some entries whose results are on file:
Polymer sequence	soluble on expression in E. coli
MGSDKIHHHHHHMTDNIKSRRSAVPGCAIHCHDCSMGTLCIPFTLNNNELDQLDDIIERKKPIQKGEQIFKSGDSLKSLYAIRSGTIKSYTITEQGDEQITGFHLAGDVIGFDGIHSQIHQSFAQALETSMVCEIPFDTLDELSGTMPKLRQQIMRLMSNEIQSDQEMILLLSKKNAEERLAAFISNLASRFGSRGFSPKEFRLTMTRGDIGNYLGLTVETISRLLGRFQKAELIEVKGKYITIVDFDSLNKLAGNNKIGR	not soluble
RVAHLLKKIHNSRPLLSMLKRMEMEPITPEIMLNKINASLSREVLTHHIVRKSLTYLEEHIPSLDSRFFTVVHGDVNHNNWLLSDRDELFLVDWEGAMIADPAIDIGMLLYNYVPQQQWSEWLETYGVQESLNLNKRMKWY	not soluble
MGSDKIHHHHHHMKLICEKELCTGCGLCAARCPKHSISLVAEELGHLYPSVDQKKCIDCGLCQKACPSLHDTVCLYPSVAYAAWSKDEEDYRSSTSGGMASVLTHYFLANVGIVYGCTVIPGIEIKHIRIDNLKDAYKLKGSKYVQSSIVDVLSQIRQDVKDGTNVLFIGTPCQVTAVKRMYEEQPDNLFLVDLICHGVPSNKWLVDYIANTLKIKADKVSSIGFRLFEAFSLCVYNDDRLIYKSGDLWTHRYEDLYYNTFIDGFTYRDSCFNCHYAKPERVSDITIGDFWGLGNETDDNYIPKHPYGISCVLPLTEKGKRLISIVKDKLNIYERPVTEAINGNDQLRFPKKKNLRIKFFRRIHKYIGVDAAYKLCVCDKIVKYKIRKIIR	not soluble
GYIDTGLYQNKEDILNSPRRLGSTQTKLGDIGYTDVNGDGKIDGEDQVRIGKPTMPHFTYAFDFSLGYEGFTLSGLLYGTGERYMTFGNRYQSGEGKYLYYENQLNYWRPDNTGADFPRISISSGVNGNNNKAGSTFWMRNASYLRLKDLQLSYDFKYKYLKKCDWLQTCRVNLSGSNLFTISGVSKFFDPETSSTSGDGYPVQRVYSIGVTIGF	not soluble
MAKRVPNMELFVFCEDLEFTQNLDLGYPFMDMTTRDKEEEAYWDMLLMQSCQHGIIANSTYSWWAAYLIENPEKIIIGPKHWLFGHENILCKEWVKIESHFEVKSQKYNALEHHHHHH	soluble
MGSDKIHHHHHHMRIVAVTDIHGNMASTVALANILKKIEAELLLIAGDITHFSGGEIAKQILEPLLKLGVRVLAVMGNCDGKDVPKVLDELGINVHNARVEVKKVGVVGFGGSSVTPFSTIWEFSEEEIYSSLKRNYRSGDIVLTHAPPYRTRIDKTFSGIHAGSKGLRKFIEEEQPPICICGHIHEARGIDKIGETLVVNPGPLSRRYYAVIDSETWEVKLERL	not soluble
LKASGVQAQMAKQQEQDPTNLYISNLPLSMDEQELENMLKPFGQVISTRILRDSSGTSRGVGFARMESTEKCEAVIGHFNGKFIKTPPGVSAPTEPLLCKF	soluble
MVEIVGHRAFKARYPENTLLAFEKAYAAGADVIETDLQMTSDGMVVVNHDSDTGRMWDKNLVIGESTWEEVKRLRCKEDGSLAMMTLKEILTWAVCHPGAKLMLDIKFTNEKIIMIKTFVIMLEVKNDLKFWQERITWGLWLLDWYDFGIETGVLKDFKVIVISLSLDIASQFVKRSLTLNDPHYKLFGISVHFVSSWTSQFRLRLLPVLMKNDIKVYLWTVNKPIDFKYLCELPIHGAITDDPIKARKLCDGHTVAKKPTAEKKFVAPSLASVDGLRFHAFIKVYNILCTLLYSKWVHIKLCGWSIAYVIFLFLRTIHFL	soluble

// below: soluble on expression in E. coli requested for another sequence
Challenge: May I ask what soluble on expression in E. coli has been recorded for SNTPSAEADWSPGLELHPDYKTWGPEQVCSFLRRGGFEEPVLLKNIRENEITGALLPCLDESRFENLGVSSLGERKKLLSYIQRLVQIHVDTMKVI ?
Response given: soluble
